FYI, the data here is from patent US20260070917A1.

- ASSAYED SYSTEM: CDK9 (Homo sapiens)
- Construct: host or cells: HEK293-CDK9-Hibit
- Sequence (P50750 whole entry): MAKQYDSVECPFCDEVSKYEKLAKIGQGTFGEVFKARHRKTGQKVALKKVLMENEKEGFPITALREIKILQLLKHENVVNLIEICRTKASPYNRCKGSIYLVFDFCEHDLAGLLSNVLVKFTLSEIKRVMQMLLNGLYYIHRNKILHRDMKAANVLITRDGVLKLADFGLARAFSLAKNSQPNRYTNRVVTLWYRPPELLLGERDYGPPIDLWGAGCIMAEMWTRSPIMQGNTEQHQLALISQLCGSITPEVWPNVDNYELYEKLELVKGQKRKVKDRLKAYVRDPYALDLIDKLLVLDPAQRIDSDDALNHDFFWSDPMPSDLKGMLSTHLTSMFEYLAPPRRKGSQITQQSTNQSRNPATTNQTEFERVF
- EXPERIMENT NOTES: HiBit Assay Protocol for CDK9 (HIBIT protein quantification, degradation)
- Type: cell-based
- CONDITION NOTES: HEK293-CDK9-Hibit cells, compound treatment for 6 hours, ABS DC50
TEST READOUT: DC50 (nM)

COMPOUND	DC50, nM
CC1CCCC1N1C(=O)C2(CC2)c2cnc(NC3CCN(S(=O)(=O)N4CC5(CN(C(=O)CCCc6cccc7c6n(C)c(=O)n7C6CCC(=O)NC6=O)C5)C4)CC3)nc21 (stereo not shown)	95.8
O=C1CCC(N2Cc3cc(N4CCC(CN5CCN(c6cccc(S(=O)(=O)c7ccc(Nc8ncc9c(n8)N([C@@H]8CCC[C@@H](O)C8)C(=O)C98CC8)cc7)c6)CC5)CC4)ccc3C2=O)C(=O)N1 (stereo partly shown)	73.6
CC1CCCC1N1C(=O)C2(CC2)c2cnc(Nc3ccc(S(=O)(=O)N(C)CCCN4CCC(c5cccc6c5n(C)c(=O)n6C5CCC(=O)NC5=O)CC4)cc3)nc21 (stereo not shown)	21.8
CN(CCCN1CCC(c2cccc3c2n(C)c(=O)n3C2CCC(=O)NC2=O)CC1)S(=O)(=O)c1ccc(Nc2ncc3c(n2)N([C@@H]2CCC[C@@H](O)C2)C(=O)C32CC2)cc1 (stereo partly shown)	74.9
CC1CCCC1N1C(=O)C2(CC2)c2cnc(NC3CCN(S(=O)(=O)N4CCN(C(=O)CCCCCc5cccc6c5n(C)c(=O)n6C5CCC(=O)NC5=O)CC4)CC3)nc21 (stereo not shown)	23
O=C1CCC(N2Cc3cc(N4CCN(CC5CCN(c6cccc(S(=O)(=O)c7ccc(Nc8ncc9c(n8)N([C@@H]8CCC[C@@H](O)C8)C(=O)C98CC8)cc7)c6)CC5)CC4)ccc3C2=O)C(=O)N1 (stereo partly shown)	33.4

P. CN(CCCN1CCC(c2cccc3c2n(C)c(=O)n3C2CCC(=O)NC2=O)CC1)S(=O)(=O)N1CCC(Nc2ncc3c(n2)N([C@@H]2CCC[C@@H](O)C2)C(=O)C32CC2)CC1 (stereo partly shown)
Q. Cc1ccc(CN2CCC(c3ccc4c(N5CCC(=O)NC5=O)nn(C)c4c3)CC2)cc1S(=O)(=O)N1CCC(Nc2ncc3c(n2)N([C@@H]2CCC[C@@H](O)C2)C(=O)C32CC2)CC1
R. CC1CCCC1N1C(=O)C2(CC2)c2cnc(NC3CCN(S(=O)(=O)N4CC(N(C)C(=O)CCCCCc5cccc6c5n(C)c(=O)n6C5CCC(=O)NC5=O)C4)CC3)nc21 (stereo not shown)
S. CC1CCCC1N1C(=O)C2(CC2)c2cnc(NC3CCN(S(=O)(=O)N4CC(N(C)C(=O)CCCCCCCCCc5cccc6c5n(C)c(=O)n6C5CCC(=O)NC5=O)C4)CC3)nc21 (stereo not shown)
# rank_down: sort by DC50, max first Form entry: ranked labels (order as requested).
P, Q, R, S
(P: 69.2 nM, Q: 25.3 nM, R: 13.6 nM, S: 6.53 nM)
